read-out: Interleukin-8 (IL8), CXCL8 (gene 3576); experiment: BSK_3C_IL8: BioMAP Diversity Plus: 3C Assay for Interleukin-8 (IL8) Biomarker Activity (AID 2283020); settings: primary human endothelial cells (HUVEC); actives raise or lower the signal
Active and inactive are the calls of the source. The calls were made as follows: active = hit-call score of the fitted dose curve at least 0.9, where 1 is the maximum; inactive = score below 0.9.
Write down one outcome, taken from yes (1) = active, no (0) = inactive

Query :: What did the test return for O=C1OC(=O)C2C3C=CC(C3)C12 (centres undefined) ?
Result :: no (0)

Query :: What did the test return for `O=C(O)c1cccc(Oc2ccccc2)c1` ?
Result :: no (0)

Query :: What did the test return for `C[C@](N)(Cc1ccc(O)c(O)c1)C(=O)O` ?
Result :: no (0)

Query :: What did the test return for `COC(=O)CC(=O)OC` ?
Result :: no (0)

Query :: What did the test return for `CC(C)CCCCCCCOC(=O)CCCCC(=O)OCCCCCCCC(C)C` ?
Result :: no (0)

Query :: What did the test return for `Cn1c(=O)c2c(ncn2C)n(C)c1=O` ?
Result :: no (0)

Query :: What did the test return for `CCn1nc(Cc2ccccc2)cc1C1CCN(C[C@H]2C[C@H](N(C)[C@@H](C(=O)O)C(C)C)C[C@@H]2c2cccc(F)c2)CC1` ?
Result :: no (0)

Query :: What did the test return for `O=C(O)CCN(C1(C(=O)NO)CCCC1)S(=O)(=O)c1ccc(Oc2ccc(F)cc2)cc1` ?
Result :: no (0)

Query :: What did the test return for `CC(C)(O)c1coc(S(=O)(=O)NC(=O)Nc2c3c(cc4c2CCC4)CCC3)c1` ?
Result :: no (0)

Query :: What did the test return for `CC1(C)C(=O)N(Br)C(=O)N1Br` ?
Result :: no (0)

Query :: What did the test return for `Clc1nc(Cl)c(Cl)c(Cl)c1Cl` ?
Result :: yes (1)

Query :: What did the test return for O=C1CCC(N2C(=O)c3ccccc3C2=O)C(=O)N1 (centres undefined) ?
Result :: no (0)

Query :: What did the test return for `O=C(CCCCCCCCc1cccnc1)N1CCC(C=C(c2ccccc2)c2ccccc2)CC1` ?
Result :: yes (1)

Query :: What did the test return for `CCC(C)(C)C(=O)O[C@H]1C[C@@H](C)C=C2C=C[C@H](C)[C@H](CC[C@@H]3C[C@@H](O)CC(=O)O3)[C@H]21` ?
Result :: yes (1)

Query :: What did the test return for `CCCCCCCCCCCCCCCO` ?
Result :: yes (1)

Query :: What did the test return for COc1ccc(-n2nc(C(F)F)cc2-c2ccc(S(C)=O)cc2)cc1 (centres undefined) ?
Result :: no (0)

Query :: What did the test return for `COc1cccc(-c2ccc(/C=C\CN3CCCCCC3)cc2Cl)c1` ?
Result :: yes (1)

Query :: What did the test return for `O=C(NS(=O)(=O)/C=C/c1ccccc1)c1ccc(F)cc1Cl` ?
Result :: no (0)

Query :: What did the test return for `CCNc1ccccc1` ?
Result :: no (0)

Query :: What did the test return for `Cc1ccc(N)cc1O` ?
Result :: no (0)

Query :: What did the test return for `CC(=O)OCCC(C)C` ?
Result :: no (0)

Query :: What did the test return for `C1N2CN3CN1CN(C2)C3` ?
Result :: no (0)

Query :: What did the test return for CCCCC(CC)COC(=O)CCCCCCCCC(=O)OCC(CC)CCCC (centres undefined) ?
Result :: no (0)

Query :: What did the test return for `CCCCCCCCO` ?
Result :: no (0)

Query :: What did the test return for `CCOC(=O)CC(CC(=O)OCC)(OC(C)=O)C(=O)OCC` ?
Result :: no (0)

Query :: What did the test return for `NC(=O)NO` ?
Result :: no (0)

Query :: What did the test return for `COC(=O)c1ccccc1O` ?
Result :: no (0)

Query :: What did the test return for Fc1ccccc1[C@@H](F)COC1CCC(Nc2ncnc3[nH]ncc23)CC1 (some centres undefined) ?
Result :: yes (1)

Query :: What did the test return for `Cc1ccc(S(=O)(=O)O)cc1C` ?
Result :: no (0)

Query :: What did the test return for `On1ccccc1=S` ?
Result :: no (0)

Query :: What did the test return for `CC(C)CCO` ?
Result :: no (0)

Query :: What did the test return for `Cc1ccc(O)cc1` ?
Result :: no (0)

Query :: What did the test return for `O=C(O)c1cc(N=Nc2ccc(S(=O)(=O)Nc3ccccn3)cc2)ccc1O` ?
Result :: no (0)

Query :: What did the test return for `CC(C)=CCC/C(C)=C/CO` ?
Result :: no (0)

Query :: What did the test return for `CC(C)CCCCCCOC(=O)c1ccc(C(=O)OCCCCCCC(C)C)c(C(=O)OCCCCCCC(C)C)c1` ?
Result :: no (0)

Query :: What did the test return for `CC(C)c1cccc(C(C)C)c1N1C(=O)c2ccc(O)cc2C1=O` ?
Result :: yes (1)

Query :: What did the test return for O=c1[nH]c2ccc(S(=O)CCN3CCC(Cc4ccc(F)cc4)CC3)cc2o1 (centres undefined) ?
Result :: no (0)

Query :: What did the test return for `CCCCCCc1ccc(O)cc1O` ?
Result :: yes (1)

Query :: What did the test return for `CCOCCOCCOCCO` ?
Result :: no (0)

Query :: What did the test return for `Oc1ccc2c(c1)-c1ccccc1C2` ?
Result :: no (0)

Query :: What did the test return for CCOC(=O)c1ccc(C2CCC(NC[C@H](O)COc3ccc(O)c(NS(C)(=O)=O)c3)CC2)cc1 (some centres undefined) ?
Result :: yes (1)

Query :: What did the test return for `CNCc1ccc(NC(=O)c2c[nH]c3c2C(=O)CCC3)cc1` ?
Result :: no (0)

Query :: What did the test return for `CN(C)c1ccc(Cc2ccc(N(C)C)cc2)cc1` ?
Result :: yes (1)

Query :: What did the test return for CC/C(=C\C(=N/O)C(N)=O)C(C)[N+](=O)[O-] (centres undefined) ?
Result :: no (0)

Query :: What did the test return for CC(O)CN(CCN(CC(C)O)CC(C)O)CC(C)O (centres undefined) ?
Result :: no (0)

Query :: What did the test return for O=c1n(CC2CO2)c(=O)n(CC2CO2)c(=O)n1CC1CO1 (centres undefined) ?
Result :: yes (1)

Query :: What did the test return for `CCc1cc(SCc2sc(-c3ccc(C(F)(F)F)cc3)nc2CN2CCN(c3ccc(OC)cc3)CC2)ccc1OCC(=O)O` ?
Result :: yes (1)

Query :: What did the test return for CC(C)CC(C)(O)C#CC(C)(O)CC(C)C (centres undefined) ?
Result :: no (0)

Query :: What did the test return for `C=CC(=C)CCC=C(C)C` ?
Result :: no (0)

Query :: What did the test return for `Cn1c(=O)cc(Oc2ccc(F)cc2F)c2cnc(NCC(C)(C)O)nc21` ?
Result :: yes (1)

Query :: What did the test return for `CCOc1cccc(-n2cc(C(=O)N3CCN(c4cc(C(=O)O)c5ccccc5c4)CC3)nc2-c2ccc(C)cc2)c1` ?
Result :: yes (1)

Query :: What did the test return for CCOC(=O)COc1ccc2c(c1)CC(NCC(O)c1cccc(Cl)c1)CC2 (centres undefined) ?
Result :: yes (1)

Query :: What did the test return for `CCCCCCCCCCCCc1ccccc1` ?
Result :: no (0)

Query :: What did the test return for `CC1=CC(=O)CC(C)(C)C1` ?
Result :: no (0)
